- assay_remarks: Liver microsomal metabolic stability, dog
- Assay type: in vitro ADME
- measurement_parameters: 0.5 mg/mL microsomes, 1 μM compound, NADPH
reported_property: Liver microsomal stability T1/2 (h)

(I) COc1cc(F)cc([C@@H](CO)NC(=O)[C@@H](C)N2Cc3ccc(-c4nc(NC5CCOCC5)ncc4Cl)c(F)c3C2=O)c1
(II) C[C@H](C(=O)N[C@H](CO)c1cccc(Cl)c1)N1Cc2ccc(-c3nc(NC4CCOCC4)ncc3F)c(F)c2C1=O
(III) C[C@H](C(=O)N[C@H](CO)c1cccc(Cl)c1)N1Cc2ccc(-c3nc(NC4CCOCC4)ncc3Cl)c(F)c2C1=O
(IV) C[C@H](C(=O)N[C@H](CO)c1cccc(Cl)c1)N1Cc2ccc(-c3ccnc(Nc4ccnn4C)c3)cc2C1=O [compound 2, reference compound]
(V) Cc1cccc([C@@H](CO)NC(=O)[C@@H](C)N2Cc3ccc(-c4nc(NC5CCOCC5)ncc4F)c(F)c3C2=O)c1
Q. Parameters: sort_by = Liver microsomal stability T1/2; order = desc; input = items above. Answer by writing out the labels in the requested order.
A. IV, V, III, I, II

----------
- assay_remarks: In-vivo pharmacokinetic parameters in mice
- Set-up: species or system Balb-c mice
- measurement_parameters: male, Balb-c, mouse, plasma, IV, 1 mg/kg, read-out: Vss
- Procedure: Six male SPF grade SD rats or Balb-c mice (Shanghai Sipple-Bikai Laboratory Animal) were divided into two groups, and the tested compounds were prepared into appropriate solutions or suspensions; one group was administered intravenously (with a dose of 1 mg/kg), and the other group was administered orally (with a dose of 5 mg/kg). […] Plasma samples were analyzed by LC-MS/MS. […]
reported_property: Vd (L/kg)

(I) C[C@H](C(=O)N[C@H](CO)c1cccc(Cl)c1)N1Cc2ccc(-c3nc(NC4CCOCC4)ncc3F)c(F)c2C1=O
(II) Cc1cccc([C@@H](CO)NC(=O)[C@@H](C)N2Cc3ccc(-c4nc(NC5CCOCC5)ncc4F)c(F)c3C2=O)c1
Q. // max by Vd over [ I , II ] Which one? Tell me its label.
A. II
(II: 2 L/kg, I: 0.9 L/kg)

----------
- assay_remarks: In-vivo pharmacokinetic parameters in mice
- Set-up: species or system Balb-c mice
- measurement_parameters: male, Balb-c, mouse, plasma, PO, 5 mg/kg
reported_property: Tmax (min)

Would you please look over these solved cases?
COc1cc(F)cc([C@@H](CO)NC(=O)[C@@H](C)N2Cc3ccc(-c4nc(NC5CCOCC5)ncc4Cl)c(F)c3C2=O)c1 18
C[C@H](C(=O)N[C@H](CO)c1cccc(Cl)c1)N1Cc2ccc(-c3nc(NC4CCOCC4)ncc3Cl)c(F)c2C1=O 18
Cc1cccc([C@@H](CO)NC(=O)[C@@H](C)N2Cc3ccc(-c4nc(NC5CCOCC5)ncc4Cl)c(F)c3C2=O)c1 18
COc1cc(F)cc([C@@H](CO)NC(=O)[C@@H](C)N2Cc3ccc(-c4nc(NC5CCOCC5)ncc4F)c(F)c3C2=O)c1 18
COc1cc(F)cc([C@@H](CO)NC(=O)[C@@H](C)N2Cc3ccc(-c4nc(NC5CCOCC5)ncc4Cl)nc3C2=O)c1 24
C[C@H](C(=O)N[C@H](CO)c1cccc(Cl)c1)N1Cc2ccc(-c3nc(NC4CCOCC4)ncc3F)c(F)c2C1=O 18

(A) Cc1cccc([C@@H](CO)NC(=O)[C@@H](C)N2Cc3ccc(-c4nc(NC5CCOCC5)ncc4F)c(F)c3C2=O)c1
(B) Cc1cccc([C@@H](CO)NC(=O)[C@@H](C)N2Cc3ccc(-c4nc(Nc5ccnn5C)ncc4Cl)c(F)c3C2=O)c1
Q. Please tell me which of the two, A or B , has the higher reported Tmax value. Your choice should be expressed through its label.
A. B
(B: 30 min, A: 18 min)

----------
- assay_remarks: In-vivo pharmacokinetic parameters in SD rats
- measurement_parameters: male, rat, plasma, 1 mg/kg, IV, 1 mpk
reported_property: half-life (min)

(1) COc1cc(F)cc([C@@H](CO)NC(=O)[C@@H](C)N2Cc3ccc(-c4nc(NC5CCOCC5)ncc4F)c(F)c3C2=O)c1 [Embodiment 40]
(2) C[C@H](C(=O)N[C@H](CO)c1cccc(Cl)c1)N1Cc2ccc(-c3nc(NC4CCOCC4)ncc3F)c(F)c2C1=O [Embodiment 37]
Q. Which is greater in half-life, the first item 1 or the second item 2 ? Mark your selection by writing its label.
A. 2
(2: 48 min, 1: 18 min)

----------
- assay_remarks: In-vivo pharmacokinetic parameters in mice
- Set-up: species or system Balb-c mice
- measurement_parameters: male, Balb-c, mouse, plasma, PO, 5 mg/kg
reported_property: AUC(0-inf) (µM·h)

Consider the worked cases shown below.
Cc1cccc([C@@H](CO)NC(=O)[C@@H](C)N2Cc3ccc(-c4nc(NC5CCOCC5)ncc4Cl)c(F)c3C2=O)c1 0.796
COc1cc(F)cc([C@@H](CO)NC(=O)[C@@H](C)N2Cc3ccc(-c4nc(NC5CCOCC5)ncc4Cl)nc3C2=O)c1 0.257
C[C@H](C(=O)N[C@H](CO)c1cccc(Cl)c1)N1Cc2ccc(-c3nc(NC4CCOCC4)ncc3F)c(F)c2C1=O 1.58

(a) COc1cc(F)cc([C@@H](CO)NC(=O)[C@@H](C)N2Cc3ccc(-c4nc(NC5CCOCC5)ncc4Cl)c(F)c3C2=O)c1
(b) C[C@H](C(=O)N[C@H](CO)c1cccc(Cl)c1)N1Cc2ccc(-c3nc(NC4CCOCC4)ncc3Cl)c(F)c2C1=O
Q. Which value of AUC(0-inf) is greater, the one for a or the one for b ? Give the chosen item's label as your response.
A. b

(A) Cc1cccc([C@@H](CO)NC(=O)[C@@H](C)N2Cc3ccc(-c4nc(Nc5ccnn5C)ncc4Cl)c(F)c3C2=O)c1
(B) COc1cc(F)cc([C@@H](CO)NC(=O)[C@@H](C)N2Cc3ccc(-c4nc(NC5CCOCC5)ncc4F)c(F)c3C2=O)c1
Q. Among A and B , which shows a numerically higher AUC(0-inf) result? Your choice should be expressed through its label.
A. B

----------
- assay_remarks: In-vivo pharmacokinetic parameters in SD rats
- measurement_parameters: male, rat, plasma, 5 mg/kg, PO, 5 mpk
reported_property: half-life (h)

compound	half-life (h)
COc1cc(F)cc([C@@H](CO)NC(=O)[C@@H](C)N2Cc3ccc(-c4nc(NC5CCOCC5)ncc4F)c(F)c3C2=O)c1 [Embodiment 40]	1.1
C[C@H](C(=O)N[C@H](CO)c1cccc(Cl)c1)N1Cc2ccc(-c3nc(NC4CCOCC4)ncc3F)c(F)c2C1=O [Embodiment 37]	1.1

----------
Listed next: entries and their corresponding IC50.
- experimental_target: ERK1/2 kinase
- Construct: fused on or other part: Carna's ERK products carry a GST tag by vendor knowledge
- assay_remarks: ERK1/2 kinase (Carna) inhibitory activity, Caliper mobility shift
- Format: biochemical
- measurement_parameters: numeric values; read-out: ERK½ IC50

Record excerpt, results attached:
C[C@H](C(=O)N[C@H](CO)c1ccc(F)c(Cl)c1)N1Cc2ccc(-c3nc(NC4CCOCC4)ncc3F)c(F)c2C1=O < 1 nM
C[C@H](C(=O)N[C@H](CO)c1cccc(F)c1)N1Cc2ccc(-c3nc(NC4CCOCC4)ncc3F)c(F)c2C1=O < 1 nM

Q. Returns the measured IC50 for the input molecule. Input: COc1cc(F)cc([C@@H](CO)NC(=O)[C@@H](C)N2Cc3ccc(-c4nc(Nc5ccnn5C)ncc4F)c(F)c3C2=O)c1
A. < 1 nM

----------
- assay_remarks: In-vivo pharmacokinetic parameters in mice
- Design: species or system Balb-c mice
- measurement_parameters: male, Balb-c, mouse, plasma, IV, 1 mg/kg
reported_property: MRT inf (min)

Cc1cccc([C@@H](CO)NC(=O)[C@@H](C)N2Cc3ccc(-c4nc(Nc5ccnn5C)ncc4Cl)c(F)c3C2=O)c1 24

(I) COc1cc(F)cc([C@@H](CO)NC(=O)[C@@H](C)N2Cc3ccc(-c4nc(NC5CCOCC5)ncc4F)c(F)c3C2=O)c1
(II) Cc1cccc([C@@H](CO)NC(=O)[C@@H](C)N2Cc3ccc(-c4nc(NC5CCOCC5)ncc4Cl)c(F)c3C2=O)c1
Q. Between I and II , whose recorded MRT inf is greater? State the label of the item chosen.
A. II
(II: 18 min, I: 12 min)

----------
- assay_remarks: In-vivo pharmacokinetic parameters in mice
- Set-up: species or system Balb-c mice
- measurement_parameters: male, Balb-c, mouse, plasma, IV, 1 mg/kg
reported_property: AUC(0-t) (µM·h)

Known AUC(0-t) results, listed for orientation:
C[C@H](C(=O)N[C@H](CO)c1cccc(Cl)c1)N1Cc2ccc(-c3nc(NC4CCOCC4)ncc3F)c(F)c2C1=O 0.583
Cc1cccc([C@@H](CO)NC(=O)[C@@H](C)N2Cc3ccc(-c4nc(NC5CCOCC5)ncc4F)c(F)c3C2=O)c1 0.397
Cc1cccc([C@@H](CO)NC(=O)[C@@H](C)N2Cc3ccc(-c4nc(NC5CCOCC5)ncc4Cl)c(F)c3C2=O)c1 0.364

(I) COc1cc(F)cc([C@@H](CO)NC(=O)[C@@H](C)N2Cc3ccc(-c4nc(NC5CCOCC5)ncc4Cl)nc3C2=O)c1
(II) COc1cc(F)cc([C@@H](CO)NC(=O)[C@@H](C)N2Cc3ccc(-c4nc(NC5CCOCC5)ncc4F)c(F)c3C2=O)c1
(III) C[C@H](C(=O)N[C@H](CO)c1cccc(Cl)c1)N1Cc2ccc(-c3nc(NC4CCOCC4)ncc3Cl)c(F)c2C1=O
Q. Descending sort on AUC(0-t) required. Please express your ranking as an ordered list of the labels.
A. III, II, I
(III: 0.825 µM·h, II: 0.365 µM·h, I: 0.198 µM·h)
